The reported numbers originate from patent US4200628A.

Can you tell me MIC for the items I'm about to list?
Tested on: Staphylococcus epidermidis TB-775
method description: MIC, antimicrobial activity
Type: cell-based
study conditions: Staphylococcus epidermidis, TB775, Staphylococcus epidermidis TB-775, tobramycin resistant strain; read-out: Minimum Inhibitory Concentration (MIC)
# do not omit the unit; it follows the number

Worked cases, answers included:
NC[C@H]1O[C@H](O[C@H]2[C@H](O)[C@@H](O[C@H]3O[C@H](CO)[C@@H](O)[C@H](N)[C@H]3O)[C@H](NC(=O)C(O)C3CNC3)C[C@@H]2N)[C@H](N)C[C@@H]1O (stereo partly drawn): 6.2 µg/mL
NC[C@H]1O[C@H](O[C@H]2[C@H](O)[C@@H](O[C@H]3O[C@H](CO)[C@@H](O)[C@H](N)[C@H]3O)[C@H](NC(=O)C(O)C3CCN3)C[C@@H]2N)[C@H](N)C[C@@H]1O (stereo partly drawn): 100 µg/mL

Q: Specify reported MIC for the compound shown: NC[C@H]1O[C@H](O[C@H]2[C@H](O)[C@@H](O[C@H]3O[C@H](CO)[C@@H](O)[C@H](N)[C@H]3O)[C@H](NC(=O)C(O)C3CCCNC3)C[C@@H]2N)[C@H](N)C[C@@H]1O (stereo partly drawn)
Ans: 25 µg/mL
